Can you tell me polymerase ribozyme fitness (log ratio) for the items I'm about to list?
B1: TPR t1 (parent)
chain: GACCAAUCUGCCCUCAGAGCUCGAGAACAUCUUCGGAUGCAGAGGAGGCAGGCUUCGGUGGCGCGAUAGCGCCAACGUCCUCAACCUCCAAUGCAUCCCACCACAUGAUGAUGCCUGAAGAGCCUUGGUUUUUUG

- Variants of: B1
- protocol: polymerase ribozyme fitness, log enrichment relative to wild type (log ratio); higher = more active; in vitro selection for triplet polymerase activity
Numbers only.

Recorded results for 3 variants are shown here.
{"variantString": "G69U G110C", "polymerase ribozyme fitness (log ratio)": -2.61}
{"variantString": "U7C C72G A84C", "polymerase ribozyme fitness (log ratio)": -0.576}
{"variantString": "C73G U96G C102A", "polymerase ribozyme fitness (log ratio)": -3.86}

Hi there! I need polymerase ribozyme fitness (log ratio) for each item below, if you can.
1. C31U G120C
2. G35C A46C C97U
3. C13U U30C C80A C89U C124G
4. G69U C85G C99U A100C G110A

1. -2.93
2. -6.04
3. -5.32
4. -5.56

Hi there! I need polymerase ribozyme fitness (log ratio) for each item below, if you can.
1. C82U C115A
2. G17U G48A A50U G61C G93A U106A
3. C49A A90C A103U C114A

1: -0.595; 2: -5.21; 3: -7.25
